Hello, the source for this data is the Human Domainome abundance scans (Beltran et al. 2025), in case you need it.

B1: POU domain, class 6, transcription factor 2, residues 609 to 663; numbered along this chain, P78424 (parent)
chain: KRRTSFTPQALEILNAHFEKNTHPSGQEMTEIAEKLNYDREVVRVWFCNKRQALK

# Variants of: B1
# testSummary: abundance fitness (aPCA) (normalised: wild type 0, dead -1); higher = more abundant; growth selection in yeast, the domain comes from the species named
# conditionDescription: Homo sapiens
Returns 1 if the recorded abundance fitness is greater than or equal to -0.2, and -1 otherwise.

sequenceRecord: KRRTSFTPQALEILNAHFEKNTHPSGQEMTEIAEKLTYDREVVRVWFCNKRQALK [N37T]
labelClass: -1
--
sequenceRecord: KRRTNFTPQALEILNAHFEKNTHPSGQEMTEIAEKLNYDREVVRVWFCNKRQALK [S5N]
labelClass: 1
--
sequenceRecord: KRRTSDTPQALEILNAHFEKNTHPSGQEMTEIAEKLNYDREVVRVWFCNKRQALK [F6D]
labelClass: -1
--
sequenceRecord: KRRTKFTPQALEILNAHFEKNTHPSGQEMTEIAEKLNYDREVVRVWFCNKRQALK [S5K]
labelClass: 1
--
sequenceRecord: KRRTSFTPQALEILNAHFEKNTHPSGQEMTEIAEKLNYDGEVVRVWFCNKRQALK [R40G]
labelClass: 1
--
sequenceRecord: KRRTSFPPQALEILNAHFEKNTHPSGQEMTEIAEKLNYDREVVRVWFCNKRQALK [T7P]
labelClass: 1
--
sequenceRecord: KRRTSFTPQALEILNAHFEKNTHPSGQEMTEIAEKLNYDREGVRVWFCNKRQALK [V42G]
labelClass: 1
--
sequenceRecord: KRRTSFTPQALEILNAHFEKNTHPSGQEMTEIAEKLSYDREVVRVWFCNKRQALK [N37S]
labelClass: 1
--
sequenceRecord: KRRTSFTPQALEILNAHFEKNTHPSGQEMTYIAEKLNYDREVVRVWFCNKRQALK [E31Y]
labelClass: -1
--
sequenceRecord: KRRTSFVPQALEILNAHFEKNTHPSGQEMTEIAEKLNYDREVVRVWFCNKRQALK [T7V]
labelClass: -1
--
sequenceRecord: KRRTSFTPQALEILNAHFEKNTHPSGVEMTEIAEKLNYDREVVRVWFCNKRQALK [Q27V]
labelClass: 1
--
sequenceRecord: KRRTSRTPQALEILNAHFEKNTHPSGQEMTEIAEKLNYDREVVRVWFCNKRQALK [F6R]
labelClass: -1
--
sequenceRecord: KRRTSFTPQALEILNAHFEKNTHPSGQEMTEIAEKLNYDREVVRVWFCSKRQALK [N49S]
labelClass: 1
--
sequenceRecord: KRRTSFMPQALEILNAHFEKNTHPSGQEMTEIAEKLNYDREVVRVWFCNKRQALK [T7M]
labelClass: -1
--
sequenceRecord: KRRTSFTPQALEILNAHFEKNTHPSGQEMTEIAEKLNYDREVVRVWFCYKRQALK [N49Y]
labelClass: -1
--
sequenceRecord: KRRTSFTPQALEILNAHFEKNTHPSGFEMTEIAEKLNYDREVVRVWFCNKRQALK [Q27F]
labelClass: -1
--
sequenceRecord: KRRTSFTPQALEILNAHFEKNTHPSGQEMTEIAEKLNIDREVVRVWFCNKRQALK [Y38I]
labelClass: 1
--
sequenceRecord: KRRTSFTPQALEILNAHFEKNTHPSGQEMTEIAEKLNYDREVVRVWRCNKRQALK [F47R]
labelClass: -1
--
sequenceRecord: KRRTSFTPQALEILKAHFEKNTHPSGQEMTEIAEKLNYDREVVRVWFCNKRQALK [N15K]
labelClass: 1
--
sequenceRecord: KRRTSMTPQALEILNAHFEKNTHPSGQEMTEIAEKLNYDREVVRVWFCNKRQALK [F6M]
labelClass: 1
--
sequenceRecord: KRRTSFTPQALEILNAQFEKNTHPSGQEMTEIAEKLNYDREVVRVWFCNKRQALK [H17Q]
labelClass: 1
--
sequenceRecord: VRRTSFTPQALEILNAHFEKNTHPSGQEMTEIAEKLNYDREVVRVWFCNKRQALK [K1V]
labelClass: -1
--
sequenceRecord: KRRTSATPQALEILNAHFEKNTHPSGQEMTEIAEKLNYDREVVRVWFCNKRQALK [F6A]
labelClass: -1
--
sequenceRecord: KRRTSFTPQALEILNAHFEKNIHPSGQEMTEIAEKLNYDREVVRVWFCNKRQALK [T22I]
labelClass: 1
--
sequenceRecord: KRRTSFTPQALEILNAHFEKNTHPSGQEMTEIAEKLNYDREVVRVWFCNKRQAIK [L54I]
labelClass: -1
--
sequenceRecord: KRRTSFTPQALQILNAHFEKNTHPSGQEMTEIAEKLNYDREVVRVWFCNKRQALK [E12Q]
labelClass: -1
--
sequenceRecord: KRRSSFTPQALEILNAHFEKNTHPSGQEMTEIAEKLNYDREVVRVWFCNKRQALK [T4S]
labelClass: 1
--
sequenceRecord: KRRTSFTPQALEILNAHFEKNTHPSGQEMTEIAEKLNYDREVVRVWSCNKRQALK [F47S]
labelClass: -1
--
sequenceRecord: KRRTSFIPQALEILNAHFEKNTHPSGQEMTEIAEKLNYDREVVRVWFCNKRQALK [T7I]
labelClass: -1
--
sequenceRecord: KRRTSFTPQALEILNAHFEKNTHPYGQEMTEIAEKLNYDREVVRVWFCNKRQALK [S25Y]
labelClass: -1
--
sequenceRecord: KRRTSFTPQALEILNAHFEKNTHPSGQEMTEIAEKLNYDREVVRVEFCNKRQALK [W46E]
labelClass: -1
--
sequenceRecord: KRRTSFTPQALEILNAHFEKNTHPSGQEMTEIAEKLNYDREVVRVWFCNKRQASK [L54S]
labelClass: 1
--
sequenceRecord: KRRTSFTPQALEILNAHFEKNKHPSGQEMTEIAEKLNYDREVVRVWFCNKRQALK [T22K]
labelClass: 1
--
sequenceRecord: KRRTSFTPQALEILNAHFEKNTPPSGQEMTEIAEKLNYDREVVRVWFCNKRQALK [H23P]
labelClass: -1
--
sequenceRecord: KRRTSFTPQALEILNAHFEKNTHPSGQIMTEIAEKLNYDREVVRVWFCNKRQALK [E28I]
labelClass: 1
--
sequenceRecord: KSRTSFTPQALEILNAHFEKNTHPSGQEMTEIAEKLNYDREVVRVWFCNKRQALK [R2S]
labelClass: 1
--
sequenceRecord: KHRTSFTPQALEILNAHFEKNTHPSGQEMTEIAEKLNYDREVVRVWFCNKRQALK [R2H]
labelClass: 1
--
sequenceRecord: KRRTSFTPQALEILNWHFEKNTHPSGQEMTEIAEKLNYDREVVRVWFCNKRQALK [A16W]
labelClass: 1
--
sequenceRecord: KRRTSFTPQALEILNAHFEKNTHPSGQEMTEIAEKLNYDREVVRVWFNNKRQALK [C48N]
labelClass: 1
--
sequenceRecord: KRRTSFTPQALEILNAHFEKNTHPGGQEMTEIAEKLNYDREVVRVWFCNKRQALK [S25G]
labelClass: 1
--
sequenceRecord: KRRTSFTLQALEILNAHFEKNTHPSGQEMTEIAEKLNYDREVVRVWFCNKRQALK [P8L]
labelClass: 1
--
sequenceRecord: KRRTSFTPQQLEILNAHFEKNTHPSGQEMTEIAEKLNYDREVVRVWFCNKRQALK [A10Q]
labelClass: 1
--
sequenceRecord: KRRTSFTPQALEILNAHFEKNTHPSGQEMTEIAEKLNYDLEVVRVWFCNKRQALK [R40L]
labelClass: 1
--
sequenceRecord: KRRTSFTPQALEILVAHFEKNTHPSGQEMTEIAEKLNYDREVVRVWFCNKRQALK [N15V]
labelClass: -1
--
sequenceRecord: KRRTSFTPQALEILNAHFELNTHPSGQEMTEIAEKLNYDREVVRVWFCNKRQALK [K20L]
labelClass: 1
